Assay: chemical genetic growth profiling, strain panel (AID 1159580);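 note: tested at 20 µM; growth read once vehicle control cultures reached saturation at 30 °C; 1 = growth at the plate median or of vehicle wells; lower values mean less growth of the strain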
Conditions: S. cerevisiae deletion strains, growth OD, locus YDL035C, strain GPR1, stronger effect = lower value
About 2,000 (36%) of roughly 5,500 compounds were called active. Inconclusive results (about 18%) are left out. This is one part of the list.
// normalized growth lookup, one value per entry
QUANTITY_KIND: normalized growth

[[record]]
compound = "C[C@]12C=CC(=O)C=C1CCC1C2C(=O)C[C@@]2(C)C1CC[C@]2(O)C(=O)CO (some centres not stated)"
quantity_kind = "normalized growth"
value = 0.981

[[record]]
compound = "COc1cc(OC)cc(OC)c1"
quantity_kind = "normalized growth"
value = 1.02

[[record]]
compound = "CC(=O)OC1CCC23C(=O)OC45CCC(C6=CC(=O)OC6)C4(C)CCC2C5CCC3(O)C1 (configuration not stated)"
quantity_kind = "normalized growth"
value = 1.05

[[record]]
compound = "CCNc1nc(Cl)nc(NC(C)C)n1"
quantity_kind = "normalized growth"
value = 1.01

[[record]]
compound = "COc1cc(O)c(C(=O)O)c(O)c1"
quantity_kind = "normalized growth"
value = 1.02

[[record]]
compound = "CN(C)c1nc(N(C)C)nc(N(C)C)n1"
quantity_kind = "normalized growth"
value = 1.02

[[record]]
compound = "CC1=C2[C@](C)(C=CC1=O)C[C@H](O)[C@H]1[C@H](C)C(=O)O[C@]21C"
quantity_kind = "normalized growth"
value = 1.02

[[record]]
compound = "Cn1c(=O)[nH]c(=O)c2[nH]cnc21"
quantity_kind = "normalized growth"
value = 1

[[record]]
compound = "c1ccc2c(c1)[nH]c1cnccc12"
quantity_kind = "normalized growth"
value = 0.991

[[record]]
compound = "O=C1OC(=O)C2C3CCC(O3)C12 (configuration not stated)"
quantity_kind = "normalized growth"
value = 1.01

[[record]]
compound = "C[C@]12C=CC(=O)C=C1CCC1C2CC[C@]2(C)C(=O)CCC12 (some centres not stated)"
quantity_kind = "normalized growth"
value = 1.03

[[record]]
compound = "COc1ccc2c(c1)[nH]c1c(C)nccc12"
quantity_kind = "normalized growth"
value = 0.998

